Test system: peptide-specific IgG in sera of cancer patients and healthy donors
Test: Measurement of anti-peptide IgG in plasma by LUMINEX multiplexed flow cytometric assay
Type: binding, human
Conditions: serum of Gastric Ca. patient #63, 1:100 dilution
Procedure: The levels of anti-peptide immunoglobulin G (IgG) were measured by the LUMINEX™ system (multiplexed flow cytometric assay) as previously reported (Komatsu N, Shichijo S, Nakagawa M, Itoh K. New multiplexed flow cytometric assay to measure anti-peptide antibody: a novel tool for monitoring immune responses to peptides used for immunization. Scand J Clin Lab Invest 2004; 64:1-11). […] Fifty μl of sample was detected using the LUMINEX™ system (multiplexed flow cytometric assay). […]
For each entry below, report its Fluorescence intesity value.
Numbers only.

QFQKLLTEF (SCCA 84-92 peptide) [SCCA-derived peptide, position 84-92] = 0
EFHCNHPFL (SCCA 362-370 peptide) [SCCA-derived peptide, position 362-370] = 0
AYELKIANKL (SCCA 98-107 peptide) [SCCA-derived peptide, position 98-107] = 0

Look at each sequence and report its Fluorescence intesity.
1. LFGEKTYLFL (SCCA 107-116 peptide) [SCCA-derived peptide, position 107-116]
2. KFMFDLFQQF (SCCA 10-19 peptide) [SCCA-derived peptide, position 10-19]
3. EYLDAIKKF (SCCA 118-126 peptide) [SCCA-derived peptide, position 118-126]
4. RFKVEESYDL (SCCA 286-295 peptide) [SCCA-derived peptide, position 286-295]

1: 29; 2: 0; 3: 0; 4: 7
